Hey, just so you know, these numbers are from patent US7244767B2.

- target-of-assay: receptor CB1 (Mus musculus)
- Construct: endogenous in cells
- Sequence (P47746 whole entry): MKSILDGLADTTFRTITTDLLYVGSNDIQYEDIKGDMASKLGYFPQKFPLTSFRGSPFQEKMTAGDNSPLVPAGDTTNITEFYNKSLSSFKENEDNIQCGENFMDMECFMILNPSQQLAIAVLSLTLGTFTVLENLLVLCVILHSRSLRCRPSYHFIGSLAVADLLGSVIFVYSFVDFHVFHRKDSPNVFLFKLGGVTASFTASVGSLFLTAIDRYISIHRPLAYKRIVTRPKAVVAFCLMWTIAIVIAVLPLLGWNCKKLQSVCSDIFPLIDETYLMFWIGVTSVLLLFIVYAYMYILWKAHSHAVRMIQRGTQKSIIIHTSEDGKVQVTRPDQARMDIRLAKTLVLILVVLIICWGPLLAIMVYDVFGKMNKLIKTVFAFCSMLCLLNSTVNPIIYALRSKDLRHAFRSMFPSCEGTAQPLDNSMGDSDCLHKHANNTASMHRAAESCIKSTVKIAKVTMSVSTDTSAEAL
- method-notes: Effect on stimulation of cyclic AMP by forskolin in N18TG2 cells
- condition-context: 1 μM forskolin, 10 min at 37° C.; read-out: IC50, c-AMP stimulated by forskolin, N18TG2 cells
Item-by-item account of IC50

| compound | IC50 (nM) |
| --- | --- |
| CCCCC/C=C\C/C=C\C/C=C\C/C=C\CCCC(=O)NCc1ccc(O)c(OC)c1 | 1300 |
| CCCCCCCCCCCCCCCC(=O)NCc1ccc(O)c(OC)c1 | 1800 |
| CCCCCCCC/C=C\CCCCCCCC(=O)NCc1ccc(O)c(OC)c1 [Example 1, N-(4-hydroxy-3-methoxybenzyl)oleylamide] | 1600 |

---

- method-notes: Solubility (physicochemical properties of the product)
- condition-context: organic solvent or mixture; in DMSO; read-out: Solubility in organic solvents, DMSO

| molecule | solubility |
| --- | --- |
| COc1cc(CNC(=O)CCCCCCCC(=O)NCc2ccc(O)c(OC)c2)ccc1O [Example 4] | > 10000 µg/mL |
